For each record, write down the corresponding pIC50.
Molecular target: beta-catenin/TCF4 engagement (Homo sapiens)
Construct: expressed in transfected cells; host or cells: HEK293
Sequence (P35222 1-781): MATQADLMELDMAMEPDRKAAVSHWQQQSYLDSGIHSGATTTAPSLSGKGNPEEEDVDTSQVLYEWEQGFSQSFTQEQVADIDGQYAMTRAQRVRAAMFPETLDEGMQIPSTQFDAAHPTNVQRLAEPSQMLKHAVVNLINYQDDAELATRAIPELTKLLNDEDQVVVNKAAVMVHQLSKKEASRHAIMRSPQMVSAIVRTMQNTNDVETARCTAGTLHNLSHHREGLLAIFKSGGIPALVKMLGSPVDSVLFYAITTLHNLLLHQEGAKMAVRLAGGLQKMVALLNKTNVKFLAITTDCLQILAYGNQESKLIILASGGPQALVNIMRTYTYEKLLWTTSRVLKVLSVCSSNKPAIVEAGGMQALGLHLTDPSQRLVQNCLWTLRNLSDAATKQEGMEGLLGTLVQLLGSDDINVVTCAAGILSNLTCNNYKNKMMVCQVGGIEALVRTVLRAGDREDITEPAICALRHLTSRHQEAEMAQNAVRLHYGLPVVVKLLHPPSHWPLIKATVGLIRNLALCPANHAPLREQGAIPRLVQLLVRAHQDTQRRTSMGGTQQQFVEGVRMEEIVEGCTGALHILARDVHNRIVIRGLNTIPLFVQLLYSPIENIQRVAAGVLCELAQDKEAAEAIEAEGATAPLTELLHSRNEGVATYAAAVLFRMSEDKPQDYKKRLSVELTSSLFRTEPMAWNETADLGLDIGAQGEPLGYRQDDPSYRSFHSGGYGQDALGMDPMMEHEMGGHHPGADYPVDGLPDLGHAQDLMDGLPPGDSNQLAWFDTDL
Experiment: Nano-BRET target engagement assay (B-cat-Halo & TCF4-Luc in HEK293 cells)
Assay type: cell-based
Conditions: read-out: NanoBRET Abs IC50
Note: pIC50 values are expressed as the negative base-10 logarithm of concentration in M.

Incoming: Recorded pIC50 of CC(=O)N1CCC[C@]12CC=CCCCC1(CCCC=CCCCOC(=O)N3CC[C@@](C(=O)N[C@@H](Cc4ccsc4)C(=O)N[C@@H](Cc4csc5ccccc45)C(=O)N[C@@H](CCC(N)=O)C(N)=O)(C3)NC(=O)[C@H](CC(C)C)NC(=O)[C@@H](Cc3cccc(S(=O)(=O)F)c3)NC(=O)[C@H](C)NC(=O)[C@H](C)NC(=O)[C@H](CN(CC(=O)O)CC(F)(F)F)NC(=O)[C@H](CC(=O)O)NC1=O)NC(=O)[C@H](CC(C)(C)C)NC(=O)[C@H](CC(=O)O)NC2=O (stereo partly drawn) [I-2185] , please.
Outgoing: 5.21

Incoming: Recorded pIC50 of CC(=O)N1CCC[C@]12CC=CCCCC1(CCCC=CCCCOC(=O)N3CC[C@@](C(=O)N[C@@H](Cc4ccccc4Cl)C(=O)N[C@@H](Cc4csc5ccccc45)C(=O)N[C@@H](C)C(N)=O)(C3)NC(=O)[C@H](CO)NC(=O)[C@H](Cc3ccccc3)NC(=O)[C@H](C)NC(=O)[C@H](C)NC(=O)[C@H](Cc3cccc(C(=O)O)c3)NC(=O)[C@H](CC(=O)O)NC1=O)NC(=O)[C@H](CC(C)(C)C)NC(=O)[C@H](CC(=O)O)NC2=O (stereo partly drawn) [I-2027] , please.
Outgoing: 5.39

Incoming: Recorded pIC50 of CC(=O)N1CCC[C@]12CC=CCCCC1(CCCC=CCCCOC(=O)N3CC[C@@](C(=O)N[C@@H](Cc4ccccc4Cl)C(=O)N[C@@H](Cc4csc5ccccc45)C(=O)N[C@@H](CC(N)=O)C(=O)N[C@@H](C)C(=O)N[C@@H](C)C(=O)N[C@@H](C)C(N)=O)(C3)NC(=O)[C@H](CC(C)C)NC(=O)[C@H](Cc3ccccc3)NC(=O)[C@H](C)NC(=O)[C@H](C)NC(=O)[C@H](Cc3cccc(C(=O)O)c3)NC(=O)[C@H](CC(=O)O)NC1=O)NC(=O)[C@H](CC(C)(C)C)NC(=O)[C@H](CC(=O)O)NC2=O (stereo partly drawn) [I-2040] , please.
Outgoing: 5.55

Incoming: Recorded pIC50 of CC(=O)N1CCC[C@]12CC=CCCCC1(CCCC=CCCCOC(=O)N3CC[C@@](C(=O)N[C@@H](Cc4ccsc4)C(=O)N[C@@H](Cc4csc5ccccc45)C(=O)N[C@@H](CCC(N)=O)C(N)=O)(C3)NC(=O)[C@H](CCC(=O)NCc3ccccc3)NC(=O)[C@H](Cc3ccccc3)NC(=O)[C@H](C)NC(=O)[C@H](C)NC(=O)[C@H](CN(CC(=O)O)CC(F)(F)F)NC(=O)[C@H](CC(=O)O)NC1=O)NC(=O)[C@H](CC(C)(C)C)NC(=O)[C@H](CC(=O)O)NC2=O (stereo partly drawn) [I-1942] , please.
Outgoing: 5.10

Incoming: Recorded pIC50 of CC(=O)N1CCC[C@]12CC=CCCCC1(CCCC=CCCCOC(=O)N3CC[C@@](C(=O)N[C@@H](Cc4ccccc4Cl)C(=O)N[C@@H](Cc4csc5ccccc45)C(=O)N[C@@H](CCC(N)=O)C(N)=O)(C3)NC(=O)[C@H](CC3CCCCC3)NC(=O)[C@H](Cc3ccccc3)NC(=O)[C@H](C)NC(=O)[C@H](C)NC(=O)[C@H](CC(=O)O)NC(=O)[C@H](CC(=O)O)NC1=O)NC(=O)[C@H](CC1CCCCC1)NC(=O)[C@H](CC(=O)O)NC2=O (stereo partly drawn) [I-1107] , please.
Outgoing: 4.93

Incoming: Recorded pIC50 of CC(=O)N1CCC[C@]12CC=CCCCC1(CCCC=CCCCOC(=O)N3CC[C@@](C(=O)N[C@@H](Cc4ccccc4Cl)C(=O)N[C@@H](Cc4csc5ccccc45)C(=O)N[C@H](C)C(N)=O)(C3)NC(=O)[C@H](C)NC(=O)[C@H](Cc3ccccc3)NC(=O)[C@H](C)NC(=O)[C@H](C)NC(=O)[C@H](Cc3cccc(C(=O)O)c3)NC(=O)[C@H](CC(=O)O)NC1=O)NC(=O)[C@H](CC(C)(C)C)NC(=O)[C@H](CC(=O)O)NC2=O (stereo partly drawn) [I-2026] , please.
Outgoing: 5.01

Incoming: Recorded pIC50 of CC(=O)N1CCC[C@]12CC=CCCCC1(CCCC=CCCCOC(=O)N3CC[C@@](C(=O)N[C@@H](Cc4ccsc4)C(=O)N[C@@H](Cc4csc5ccccc45)C(=O)N[C@H](C(N)=O)C(C)C)(C3)NC(=O)[C@H](CC(C)C)NC(=O)[C@H](Cc3ccccc3)NC(=O)[C@H](C)NC(=O)[C@H](CCC(N)=O)NC(=O)[C@H](Cc3cccc(C(=O)O)c3)NC(=O)[C@H](CC(=O)O)NC1=O)NC(=O)[C@H](CC(C)(C)C)NC(=O)[C@H](CC(=O)O)NC2=O (stereo partly drawn) [I-2055] , please.
Outgoing: 4.98

Incoming: Recorded pIC50 of CC(=O)N1CCC[C@]12CC=CCCCC1(CCCC=CCCCOC(=O)N3CC[C@@](C(=O)N[C@@H](Cc4ccccc4Cl)C(=O)N[C@@H](Cc4csc5ccccc45)C(=O)N[C@@H](CO)C(N)=O)(C3)NC(=O)[C@H](CC(C)C)NC(=O)[C@H](Cc3ccccc3)NC(=O)[C@H](C)NC(=O)[C@H](C)NC(=O)[C@H](Cc3ccc(F)c(C(=O)O)c3)NC(=O)[C@H](CC(=O)O)NC1=O)NC(=O)[C@H](CC(C)(C)C)NC(=O)[C@H](CC(=O)O)NC2=O (stereo partly drawn) [I-2205] , please.
Outgoing: 5.49
